Tested on: Smartweed
Method notes: Post-emergence herbicidal activity, greenhouse
Assay type: in vivo
Settings: Table II; 5.6 kg/h; 4 WAT
Measured post-emergence herbicidal activity index accompanies every entry in the list below.

{"Compound": "COC(=O)CN(CP(=O)(Oc1ccccc1)Oc1ccccc1)SSC(C)C [I]", "System name": "Smartweed", "post-emergence herbicidal activity index": "4 (100% control)"}
{"Compound": "CCCCCCCCSSN(CC(=O)OC)CP(=O)(Oc1ccccc1)Oc1ccccc1 [II]", "System name": "Smartweed", "post-emergence herbicidal activity index": "2 (50-74% control)"}
{"Compound": "CCOC(=O)CN(CP(=O)(Oc1ccc(OC)cc1)Oc1ccc(OC)cc1)SSC [VI]", "System name": "Smartweed", "post-emergence herbicidal activity index": "4 (100% control)"}
{"Compound": "COC(=O)CN(CP(=O)(Oc1ccccc1OC)Oc1ccccc1OC)SSc1cccc(C(F)(F)F)c1 [V]", "System name": "Smartweed", "post-emergence herbicidal activity index": "2 (50-74% control)"}
{"Compound": "O=C(CN(CP(=O)(Oc1ccccc1)Oc1ccccc1)SSCCc1ccccc1)OCc1ccccc1 [IV]", "System name": "Smartweed", "post-emergence herbicidal activity index": "2 (50-74% control)"}
